cond: buffer; pH 7.4; 200.0 µM
Kindly supply the reported solubility kinetic values for the records listed here.

Prompt: Provide measured solubility kinetic value, entry: CCC(C)NC(=O)[C@@H]1CSC2c3ccccc3C(=O)N21 (stereo partly drawn)
Completion: > 43.6 µg/mL

Prompt: Consider the molecule Cc1ccc(OCCn2cc(/C=C/C(=O)O)c3ccccc32)cc1 and give its recorded solubility kinetic.
Completion: > 48.2 µg/mL

Prompt: Name the recorded solubility kinetic of the molecule listed here: COc1ccc(NC(=O)CCC(=O)NCc2ccco2)c([N+](=O)[O-])c1
Completion: > 52.1 µg/mL

---

cond: buffer; pH 7.4; 200.0 µM
Hi there, I'd appreciate the recorded solubility kinetic for every entry that follows.

Prompt: State its solubility kinetic: NS(=O)(=O)c1ccc(N2CCOCC2)c(C(=O)NCc2cccs2)c1
Completion: > 57.2 µg/mL

Prompt: Given the compound COc1ccc(NC(=O)c2cc(C)cc(C)c2)cc1[N+](=O)[O-] , write its reported solubility kinetic.
Completion: < 0.3 µg/mL

Prompt: Identify solubility kinetic associated with the compound CC(=O)N/C(=C\c1ccccc1)C(=O)OCC(=O)NC1CCS(=O)(=O)C1 (centres undefined)
Completion: > 57.1 µg/mL

Prompt: Complete the entry with solubility kinetic for C=CCNC(=O)/C(C#N)=C/c1ccc(C)o1
Completion: > 32.4 µg/mL

Prompt: Indicate the recorded solubility kinetic value for this compound: C/C(=N\n1c(C)nc2ccccc2c1=O)c1ccc(N)cc1
Completion: > 43.9 µg/mL

Prompt: Given Cc1ccc2[nH]c3c(c2c1)CCN(C)C3 , respond with its solubility kinetic.
Completion: > 30 µg/mL

Prompt: Return reported solubility kinetic. Input compound: Fc1cc(Br)ccc1NC(=S)Nc1cccnc1
Completion: 44.8 µg/mL

Prompt: Quick one: give measured solubility kinetic for CCN(Cc1ccncc1)C(=O)c1ccc(C)o1
Completion: > 36.6 µg/mL

Prompt: Input Cc1ccc(S(=O)(=O)N2CCN(C(=O)Cn3c(=O)oc4ccccc43)CC2)cc1 , output reported solubility kinetic.
Completion: 12.7 µg/mL

Prompt: Give a short answer stating reported solubility kinetic for CC(C)Oc1cccc(C(=O)NC2=NCCS2)c1 .
Completion: 22 µg/mL

Prompt: Please give measured solubility kinetic of the following entry: COc1ccccc1C1Nc2ccccc2NC2=C1C(=O)CC(C)(C)C2 (centres undefined)
Completion: 51.6 µg/mL

Prompt: Provide measured solubility kinetic value, entry: COc1cccc(CNC(=S)Nc2cccc(Cl)c2C)c1
Completion: 29.9 µg/mL

Prompt: Retrieve solubility kinetic measured for CC(=O)NCCC(=O)N1CCCC(N(C)CCc2ccccc2)C1 (centres undefined) and print it.
Completion: > 49.7 µg/mL

Prompt: # return recorded solubility kinetic for entry O=C(O)c1cc(S(=O)(=O)NCC2COc3ccccc3O2)ccc1Cl (centres undefined)
Completion: > 57.6 µg/mL

Prompt: Identify solubility kinetic associated with the compound O=C(c1c[nH]c2ccccc12)C(F)(F)F
Completion: 20.2 µg/mL

Prompt: # return recorded solubility kinetic for entry Cc1cccc(C)c1OCC(=O)Nc1ccccc1C(F)(F)F
Completion: 1.6 µg/mL

Prompt: Please report solubility kinetic for the following compound: O=C(COc1ccc(F)cc1Cl)N1CCN(C(=O)c2cccs2)CC1
Completion: > 57.4 µg/mL

Prompt: Please report the measured solubility kinetic for CCOc1ccc(-n2ccc(=O)c(C(=O)O)n2)cc1
Completion: > 39 µg/mL

Prompt: State, in one line, measured solubility kinetic of O=c1[nH]c2ccccc2n2c(C(F)(F)F)nnc12
Completion: > 38.1 µg/mL

---

cond: buffer; pH 7.4; 200.0 µM
assay.metric: solubility kinetic

Prompt: // fetch solubility kinetic given entry Cc1cc(N2CCCCC2)nc2c(C)cccc12
Completion: < 0.3 µg/mL

Prompt: Identify measured solubility kinetic associated with O=C(O)/C=C/c1ccccc1[N+](=O)[O-]
Completion: > 29 µg/mL

Prompt: Give the measured solubility kinetic for COC(=O)CC(NC(=O)c1cccs1)c1ccc(OC)c(OC)c1 (stereo not drawn)
Completion: > 52.4 µg/mL

---

Give solubility kinetic for every item shown.
cond: buffer; pH 7.4; 200.0 µM

Prompt: Indicate its recorded solubility kinetic; the compound in question is CCCC(=O)Nc1ccc(S(=O)(=O)Nc2cc(OC)ncn2)cc1
Completion: > 52.6 µg/mL

Prompt: State its solubility kinetic: O=C(O)/C=C/c1cn(-c2ccccc2)nc1-c1ccccc1
Completion: > 43.5 µg/mL

Prompt: Could you please provide reported solubility kinetic for Oc1ccccc1-c1nc(NCc2cccnc2)c2ccccc2n1 ? Thanks!
Completion: < 0.2 µg/mL

---

Hi there, I'd appreciate the recorded solubility kinetic for every entry that follows.
cond: buffer; pH 7.4; 200.0 µM

Prompt: Quick one: give measured solubility kinetic for CCN(C(=O)CN1CCCC(C)C1)c1c(N)n(Cc2ccccc2)c(=O)[nH]c1=O (stereo not drawn)
Completion: > 59.9 µg/mL

Prompt: Let me know recorded solubility kinetic for COc1ccc(CNC(=O)N[C@H](C(=O)O)C(C)C)cc1OC , thanks.
Completion: > 46.6 µg/mL

Prompt: State its solubility kinetic: O=C(NCc1ccccc1)C(=O)Nc1nc(-c2ccccc2)cs1
Completion: < 0.2 µg/mL

---

Give solubility kinetic for every item shown.
cond: buffer; pH 7.4; 200.0 µM

Prompt: For the molecule CCN(C(=O)COC(=O)c1ccc[nH]c1=O)c1cccc2ccccc12 , give its measured solubility kinetic value.
Completion: > 52.6 µg/mL

Prompt: Respond only with solubility kinetic recorded for CCn1c(C)nnc1SCC(=O)Nc1ccccc1Cl
Completion: > 46.6 µg/mL

Prompt: Hello, please tell me recorded solubility kinetic for this one: CC(=O)N1CCc2c(sc(NC(=O)Cc3ccc(F)cc3)c2C#N)C1
Completion: < 0.3 µg/mL

Prompt: Find the measured solubility kinetic of O=C(Nc1nc(-c2ccncc2)cs1)c1ccc(F)cc1 and report it.
Completion: < 0.2 µg/mL

Prompt: Supply solubility kinetic value. Item: O=C(COC(=O)C1CC(=O)N(Cc2ccccc2)C1)Nc1cccc([N+](=O)[O-])c1 (centres undefined)
Completion: > 59.6 µg/mL

Prompt: Report measured solubility kinetic; entry is CC(=O)c1c(C(C)=O)c(C)n(-c2cccc3cccnc23)c1C
Completion: > 46 µg/mL

Prompt: Please give the documented solubility kinetic of Cc1ccc(C(=O)Nc2ccc(N3CCN(C)CC3)nc2)cc1
Completion: > 46.6 µg/mL

Prompt: Quick one: give measured solubility kinetic for OC1(C(F)(F)F)CC(c2ccc3ccccc3c2)=NO1 (centres undefined)
Completion: > 42.2 µg/mL

Prompt: Please indicate solubility kinetic recorded for COC(=O)c1sc(-c2cccs2)cc1NC(=O)/C=C/C(=O)O
Completion: > 50.6 µg/mL

Prompt: State its solubility kinetic: Cl.O=C(O)c1ccc(Nc2ncnc3ccccc23)cc1
Completion: > 45.3 µg/mL

Prompt: Complete the entry with solubility kinetic for Cc1cc(C(=O)NC(C)C2CCCO2)no1 (centres undefined)
Completion: > 33.6 µg/mL

Prompt: Give the reported solubility kinetic for this molecule. COC(=O)C(C(=O)OC)c1ncccc1[N+](=O)[O-]
Completion: > 38.1 µg/mL

Prompt: Name the recorded solubility kinetic of the molecule listed here: O=C(COC(=O)c1ccc([N+](=O)[O-])o1)Nc1ccc(F)cc1
Completion: > 46.2 µg/mL

Prompt: Please look at this molecule and report its solubility kinetic: COc1ccccc1CN(C)C(=O)CSCC(=O)Nc1ccccc1F
Completion: > 56.5 µg/mL

Prompt: Specify solubility kinetic for Cc1ccc(C(=O)C[n+]2cccc(C(N)=O)c2)cc1.[Br-] and stop.
Completion: > 50.3 µg/mL

Prompt: Dear colleague, please send me the reported solubility kinetic for c1ccc2c(SCc3cn4ccccc4n3)nncc2c1 when you can.
Completion: > 43.9 µg/mL

Prompt: Retrieve solubility kinetic measured for CC(C)N1C(=O)C(=O)N(CC(=O)N(C)c2ccccc2)C1=O and print it.
Completion: > 45.5 µg/mL

Prompt: Note solubility kinetic for the molecule shown: COc1cc(/C=C/C(=O)O)cc(S(=O)(=O)Nc2ccccc2C(=O)NCc2ccco2)c1OC
Completion: > 73 µg/mL

Prompt: Read off the recorded solubility kinetic for Cc1ccc(N(CCO)C(=S)Nc2ccccc2)cc1
Completion: > 43 µg/mL

Prompt: State its solubility kinetic: OCC1(CCCc2ccccc2)CCN(C2CCC2)CC1
Completion: > 43.1 µg/mL

Prompt: Write down solubility kinetic measured for item CCN(CC(=O)NC1CC1)S(=O)(=O)c1ccc(C)cc1
Completion: > 44.5 µg/mL

Prompt: Determine its reported solubility kinetic: CC(=O)C1=C(O)C(=O)N(c2cccnc2)C1c1cccc([N+](=O)[O-])c1 (centres undefined)
Completion: > 50.9 µg/mL

Prompt: // Input: O=[N+]([O-])/C(C(Cl)=C(Cl)Cl)=C1\Nc2ccccc2O1 . Output its solubility kinetic only.
Completion: > 46.1 µg/mL

Prompt: Quick one: give measured solubility kinetic for Cc1c(Cl)cccc1NC(=S)NCCc1ccccn1
Completion: > 45.9 µg/mL
